system: HPV-16; assay: qPCR sensitivity against HPV-HNSCC tumor samples diluted among 10 ng normal human DNA; settings: Sample # 26
Answer each item with its documented Threshold of tumor cell numbers for HPV-16 detection.
One number for each entry, in tumor cells.

Check out these entries, answers already filled in.
{"MOLECULE": "BR E1-6: HPV-16 E1 region primer/probe set, SEQ ID NO: 43-45 (nucleic acid, chemistry not given here) DNA 1: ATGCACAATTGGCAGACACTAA DNA 2: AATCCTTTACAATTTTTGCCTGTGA DNA 3: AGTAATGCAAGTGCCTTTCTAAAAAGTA", "UNIT_TEXT": "tumor cells", "TEST_RESULT": 0.3}
{"MOLECULE": "HR E5L2-4: primer/probe set for junction between E5 and L2, SEQ ID NO: 55-57 (same as SEQ ID NO: 4-6) (nucleic acid, chemistry not given here) DNA 1: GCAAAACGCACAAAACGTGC DNA 2: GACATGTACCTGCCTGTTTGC DNA 3: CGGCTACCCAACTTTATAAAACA", "UNIT_TEXT": "tumor cells", "TEST_RESULT": 0.6}

q: Please look up its Threshold of tumor cell numbers for HPV-16 detection: BR E1-4: HPV-16 E1 region primer/probe set, SEQ ID NO: 37-39 (nucleic acid, chemistry not given here) DNA 1: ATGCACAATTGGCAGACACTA DNA 2: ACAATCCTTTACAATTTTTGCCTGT DNA 3: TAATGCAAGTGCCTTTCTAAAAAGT
a: 0.6
